This collection of values is drawn from paper PMC10111420.

Test: in vitro
Assay type: cell-based, human
Experimental Conditions: human
Where a SMILES comes first, the peptide text is derived from it. [ ]: non-standard residue; d: D form.
Measured Endpoint: EC50 at 60 min

>>> result("CC(C)C[C@@H](NC(=O)[C@@H](CCCNC(=N)N)NC(=O)[C@H](CCCNC(=N)N)NC(=O)[C@@H](C)NC(=O)[C@@H](Cc1c[nH]c2ccccc12)NC(=O)[C@@H](CCCNC(=N)N)NC(=O)[C@H](N)CCCNC(=N)N)C(=O)N[C@H](C)C(=O)N[C@H](Cc1ccccc1)C(=O)N[C@@H](C)C(=O)N[C@H](Cc1ccccc1)C(=O)N[C@H](CCCNC(=N)N)C(=O)N[C@H](CCCNC(=N)N)C(N)=O [D-CONGA-L-R5,A10] (H-[dR][dR][dW][dA]R[dR][dL][dA][dF]A[dF][dR][dR]-NH2; N-terminus and C-terminus assumed)")
"> 1000 µM"

====

Tested on: MRSA SAP400, a USA400 strain
Test: microbe, parasite or virus in culture
Experimental Conditions: Staphylococcus aureus, read-out: MIC, MRSA USA400
Measured Endpoint: MIC

>>> result("CC1(C)S[C@@H]2[C@H](NC(=O)[C@H](N)c3ccccc3)C(=O)N2[C@H]1C(=O)O [AMP, ampicillin]")
"> 150 µM"
>>> result("C[C@@H](O)[C@H]1C(=O)N2C(C(=O)O)=C(S[C@@H]3CN[C@H](C(=O)N(C)C)C3)[C@H](C)[C@H]12 [MEM, meropenem]")
"> 150 µM"
>>> result("NC[C@H]1O[C@H](O[C@H]2[C@H](O)[C@@H](O[C@H]3O[C@H](CO)[C@@H](O)[C@H](N)[C@H]3O)[C@H](N)C[C@@H]2N)[C@H](N)C[C@@H]1O [TOB, tobramycin]")
"> 150 µM"
>>> result("CO/N=C(\\C(=O)N[C@@H]1C(=O)N2C(C(=O)O)=C(CSc3nc(=O)c(=O)[nH]n3C)CS[C@H]12)c1csc(N)n1 [CRO, ceftriaxone]")
"> 150 µM"
>>> result("CC(C)(O/N=C(\\C(=O)N[C@@H]1C(=O)N2C(C(=O)[O-])=C(C[n+]3ccccc3)CS[C@H]12)c1csc(N)n1)C(=O)O [CAZ, ceftazidime]")
"> 150 µM"
>>> result("O=C(O)c1cn(C2CC2)c2cc(N3CCNCC3)c(F)cc2c1=O [CIPRO, ciprofloxacin]")
"0.8 µM"

====

Tested on: human RBCs
Format: cell-based
Where a SMILES comes first, the peptide text is derived from it. [ ]: non-standard residue; d: D form.
Measured Endpoint: Hemolysis at 100 μM (fractional hemolysis)

>>> result("CC(C)C[C@@H](NC(=O)[C@@H](CCCNC(=N)N)NC(=O)[C@H](CCCNC(=N)N)NC(=O)[C@@H](C)NC(=O)[C@@H](Cc1c[nH]c2ccccc12)NC(=O)[C@@H](CCCNC(=N)N)NC(=O)[C@H](N)CCCNC(=N)N)C(=O)N[C@H](C)C(=O)N[C@H](Cc1ccccc1)C(=O)N[C@@H](C)C(=O)N[C@H](Cc1ccccc1)C(=O)N[C@H](CCCNC(=N)N)C(=O)N[C@H](CCCNC(=N)N)C(N)=O [D-CONGA-L-R5,A10] (H-[dR][dR][dW][dA]R[dR][dL][dA][dF]A[dF][dR][dR]-NH2; N-terminus and C-terminus assumed)")
0.04

====

Test system: human RBCs
Format: cell-based
Where a SMILES comes first, the peptide text is derived from it. [ ]: non-standard residue; d: D form.
Measured Endpoint: Hemolysis at 100 μM (fractional hemolysis)

>>> number("CC(C)C[C@@H](NC(=O)[C@@H](CCCNC(=N)N)NC(=O)[C@@H](CCCNC(=N)N)NC(=O)[C@@H](C)NC(=O)[C@@H](Cc1c[nH]c2ccccc12)NC(=O)[C@@H](CCCNC(=N)N)NC(=O)[C@H](N)CCCNC(=N)N)C(=O)N[C@H](C)C(=O)N[C@H](Cc1ccccc1)C(=O)N[C@H](Cc1ccccc1)C(=O)N[C@H](CCCNC(=N)N)C(=O)N[C@H](CCCNC(=N)N)C(N)=O [D-CONGA-ΔA10] (H-[dR][dR][dW][dA][dR][dR][dL][dA][dF][dF][dR][dR]-NH2; N-terminus and C-terminus assumed)")
0.02
>>> number("CC(C)C[C@@H](NC(=O)[C@@H](CCCNC(=N)N)NC(=O)[C@@H](CCCNC(=N)N)NC(=O)[C@@H](C)NC(=O)[C@@H](Cc1c[nH]c2ccccc12)NC(=O)[C@@H](CCCNC(=N)N)NC(=O)[C@H](N)CCCNC(=N)N)C(=O)N[C@H](C)C(=O)N[C@H](Cc1ccccc1)C(=O)N[C@H](C)C(=O)N[C@H](Cc1ccccc1)C(=O)N[C@H](CCCNC(=N)N)C(N)=O [D-CONGA-ΔR13] (H-[dR][dR][dW][dA][dR][dR][dL][dA][dF][dA][dF][dR]-NH2; N-terminus and C-terminus assumed)")
0.03

====

System: human RBCs
Type: cell-based
Where a SMILES comes first, the peptide text is derived from it. [ ]: non-standard residue; d: D form.
# Hemolysis at 100 μM (fractional hemolysis) per record follows
Measured Endpoint: Hemolysis at 100 μM (fractional hemolysis)

>>> number("CC(C)C[C@@H](NC(=O)[C@@H](CCCNC(=N)N)NC(=O)[C@H](N)CCCNC(=N)N)C(=O)N[C@H](C)C(=O)N[C@H](Cc1ccccc1)C(=O)N[C@H](C)C(=O)N[C@H](Cc1ccccc1)C(=O)N[C@H](CCCNC(=N)N)C(=O)N[C@H](CCCNC(=N)N)C(=O)N[C@H](Cc1c[nH]c2ccccc12)C(=O)N[C@H](C)C(=O)N[C@H](CCCNC(=N)N)C(=O)N[C@H](CCCNC(=N)N)C(N)=O [D-CONGA-FLIP] (H-[dR][dR][dL][dA][dF][dA][dF][dR][dR][dW][dA][dR][dR]-NH2; N-terminus and C-terminus assumed)")
0.05
>>> number("CC(C)C[C@@H](NC(=O)CNC(=O)[C@@H](CCCNC(=N)N)NC(=O)[C@@H](CCCNC(=N)N)NC(=O)[C@@H](C)NC(=O)[C@@H](Cc1c[nH]c2ccccc12)NC(=O)[C@@H](CCCNC(=N)N)NC(=O)[C@H](N)CCCNC(=N)N)C(=O)N[C@H](C)C(=O)N[C@H](Cc1ccccc1)C(=O)N[C@H](C)C(=O)N[C@H](Cc1ccccc1)C(=O)N[C@H](CCCNC(=N)N)C(=O)N[C@H](CCCNC(=N)N)C(N)=O [D-CONGA-G7] (H-[dR][dR][dW][dA][dR][dR]G[dL][dA][dF][dA][dF][dR][dR]-NH2; N-terminus and C-terminus assumed)")
0.07
>>> number("CC(C)C[C@@H](NC(=O)[C@@H](CCC(N)=O)NC(=O)[C@@H](CCCNC(=N)N)NC(=O)[C@@H](CCCNC(=N)N)NC(=O)[C@@H](C)NC(=O)[C@@H](Cc1c[nH]c2ccccc12)NC(=O)[C@@H](CCCNC(=N)N)NC(=O)[C@H](N)CCCNC(=N)N)C(=O)N[C@H](C)C(=O)N[C@H](Cc1ccccc1)C(=O)N[C@H](C)C(=O)N[C@H](Cc1ccccc1)C(=O)N[C@H](CCCNC(=N)N)C(=O)N[C@H](CCCNC(=N)N)C(N)=O [D-CONGA-Q7] (H-[dR][dR][dW][dA][dR][dR][dQ][dL][dA][dF][dA][dF][dR][dR]-NH2; N-terminus assumed)")
0.07

====

System: human RBCs
Type: cell-based
Where a SMILES comes first, the peptide text is derived from it. [ ]: non-standard residue; d: D form.
Mark YES only when Hemolysis at 100 μM (fractional hemolysis) stays strictly below 0.03. Values equal to the cut-off are NO.

>>> assigned_label("CC(C)C[C@@H](NC(=O)[C@@H](CCCNC(=N)N)NC(=O)[C@@H](CCCNC(=N)N)NC(=O)[C@@H](C)NC(=O)[C@@H](Cc1c[nH]c2ccccc12)NC(=O)[C@@H](CCCNC(=N)N)NC(=O)[C@H](N)CCCNC(=N)N)C(=O)N[C@H](C)C(=O)N[C@H](Cc1ccccc1)C(=O)N[C@H](C)C(=O)N[C@H](Cc1ccccc1)C(=O)N[C@H](CCCNC(=N)N)C(=O)N[C@H](CCCNC(=N)N)C(N)=O [D-CONGA] (H-[dR][dR][dW][dA][dR][dR][dL][dA][dF][dA][dF][dR][dR]-NH2)")
"NO"
>>> assigned_label("CC(C)C[C@@H]1NC(=O)[C@H](CCCNC(=N)N)NC(=O)[C@H](CCCNC(=N)N)NC(=O)[C@H](C)NC(=O)[C@H](Cc2c[nH]c3ccccc23)NC(=O)[C@H](CCCNC(=N)N)NC(=O)[C@H](CCCNC(=N)N)NC(=O)[C@H](CCCNC(=N)N)NC(=O)[C@H](CCCNC(=N)N)NC(=O)[C@H](Cc2ccccc2)NC(=O)[C@H](C)NC(=O)[C@H](Cc2ccccc2)NC(=O)[C@H](C)NC1=O [L-CONGA-OH cycl.] (cyclo(RRWARRLAFAFRR))")
"NO"
>>> assigned_label("CC(C)C[C@@H](NC(=O)[C@@H](CCCNC(=N)N)NC(=O)[C@@H](CCCNC(=N)N)NC(=O)[C@@H](Cc1c[nH]c2ccccc12)NC(=O)[C@@H](CCCNC(=N)N)NC(=O)[C@H](N)CCCNC(=N)N)C(=O)N[C@H](C)C(=O)N[C@H](Cc1ccccc1)C(=O)N[C@H](C)C(=O)N[C@H](Cc1ccccc1)C(=O)N[C@H](CCCNC(=N)N)C(=O)N[C@H](CCCNC(=N)N)C(N)=O [D-CONGA-ΔA4] (H-[dR][dR][dW][dR][dR][dL][dA][dF][dA][dF][dR][dR]-NH2; N-terminus and C-terminus assumed)")
"YES"
>>> assigned_label("CC(C)C[C@H](NC(=O)[C@H](CCCNC(=N)N)NC(=O)[C@H](CCCNC(=N)N)NC(=O)[C@H](C)NC(=O)[C@H](Cc1c[nH]c2ccccc12)NC(=O)[C@H](CCCNC(=N)N)NC(=O)[C@H](N)CCCNC(=N)N)C(=O)N[C@@H](C)C(=O)N[C@@H](Cc1ccccc1)C(=O)N[C@@H](C)C(=O)N[C@@H](Cc1ccccc1)C(=O)N[C@@H](CCCNC(=N)N)C(=O)N[C@H](CCCNC(=N)N)C(N)=O [L-CONGA- (R1,R13)] (H-[dR]RWARRLAFAFR[dR]-NH2; N-terminus and C-terminus assumed)")
"YES"
